- assay_explanation: folding stability dG unfold from trypsin proteolysis; higher = more stable
Quick rule for you: folding stability dG unfold at 2 kcal/mol or higher means 1, lower means -1.

>>> class_label("SAGGILDLAAERNAVSVEVLEVNPEPPTVTVRLTYRNAAGEPRTATFTVELPPPAPPVPLVLPGEATFSAGG [r13_608_TrMRF]")
-1
>>> class_label("SAGGSAKLSAEEIAKLLKKLFPEVKEIKVKVEVNGKLYEVKIKVEKVKKKEKKKVEGMSEEEKKKLSAGGSA [r15_156_TrROS_Hall]")
1
>>> class_label("SAGGSANLPPGQPKIITITIPLGEEVRNPDGEPMTPEDIADNFQERFGNIEVEKSPNGWLEVTFWLSAGGSA [r15_645_TrROS]")
-1
>>> class_label("SAGGSEILKKLFPNVKKIEIEVEEVEVKYSEEEKKANPNKKVKVEVKVKVKIKIKIELEFDKNGKLSAGGSA [r2_404_TrROS_Hall]")
1
>>> class_label("SLIPIRPLATSPSGDLLIEVPAEEDLVEEIKKYLKEKFPGYTPVEVKPVESPPLYLVLFSHPSGKKVWLGSA [r9_1164_JUSTAS]")
-1
>>> class_label("SAGGMEIVSSGSLEEAIALLKENPNTTITVTLPDGTTVVIKVTQNGEGPYIYDVSTEPPAAAPSPSLVSAGG [r13_56_JUSTAS]")
1
>>> class_label("SAGGSANGKRVEVPITIFFYRRDPEDGKWEPIFPFEIPIRIPVPPGAEVTIEIEFTGNMFRITIEVSAGGSA [r15_537_TrROS]")
1
>>> class_label("SAGGSASSSLEVEVTAESPDPETGELRVTAVITTTYFDPSTGSTSTTTTTLTLTPEELAALVAALSSAGGSA [r2_357_JUSTAS]")
1
>>> class_label("SAGGSADPGKPIQIAIMIHIDPEPGRIEIPIYIMDDNRVRPVSIEFTPAGTLKIEVGNKEIEIPIKSAGGSA [r15_507_TrROS]")
1
>>> class_label("SAGGSAGGSMTPVPGGYVITIETPAPGGVPLATLYVPSREEAEAAIAEIPAEDLTAVTVEPVLLSAGGSAGG [r6_705_JUSTAS]")
-1
>>> class_label("SAGGSAGGGAVVLEEAFDPVRPERLVLVEVVNEKGEPFRFPVPLEDLEAVFEKLPPGFPVLVLPSAGGSAGG [r6_111_TrMRF]")
-1
>>> class_label("SAGGSAGGSPPNKEVYIRIKIEYDGPNGQPIMEFWIPADEITPSFIEELMNRGGIKVDIELIPSAGGSAGGS [r12_398_TrROS]")
1
>>> class_label("SAGGSAGGSAGGSMPYVVVVKYPDGSTVTFPPGEDINVKVSPDKKGVEVVSVVPLSELLSAGGSAGGSAGGS [r4_122_JUSTAS]")
-1
>>> class_label("SSMSMKTITIDATFTSEEEAKKYAEEIKKKIPPENIKNISISSTPELVTGDGTYKGEKIKVTITIEIVKKSA [r9_605_JUSTAS]")
-1

###

- assay_explanation: folding stability dG unfold from chymotrypsin proteolysis; higher = more stable
// folding stability dG unfold lookup, one value per entry
observation_type: folding stability dG unfold (kcal/mol)

>>> observed_result("SAGGSAGGSAGGSGMKYKVTVTFPGGEVRSLEVDSVEEALEKLKEENRPIKEVTVEPLESAGGSAGGSAGGS [r4_213_JUSTAS]")
2.54
>>> observed_result("SAGGSAGGSAGGSAKITIEYNPETNTLTVTITLENGEKVEITVPPNATLEEIEELAKKASAGGSAGGSAGGS [r4_205_TrROS_Hall]")
2.49
>>> observed_result("SAGGSAGGMVKVYPIDPNTPPEAVVARLEKEFPDRPIKSVSVSTVGDVPVVTITFPDGLKVVVSSAGGSAGG [r6_492_JUSTAS]")
1.43
>>> observed_result("SSATVTFTVELPDDSVIVSVRIDAEEYDPGPPWVRVTIEVEIYDKNGELLATLRFEFLLPREVLEELRKSSA [r9_234_TrMRF]")
5.74
